Where do these numbers come from? They come from the supplement of paper PMC10567573.

B1: RIPK4 (parent)
chain: VIDLFDEQGLSALHLAAQGRHAQT

# Variants of: B1
# Test description: protein stability index of a GFP-peptide fusion (GPS, HEK-293T) (PSI 1-6); higher = more stable;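 further: lentivirally expressed fusions sorted by FACS into six bins by GFP to DsRed ratio, PSI derived from sequencing read proportions per bin multiplied by bin number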
# Condition info: c terminus: a fixed tail appended
Readout: protein stability index
Just the number.

Polymer sequence | Readout | Assay value
VIDLFDEQGLSALHLAAQCRHAQT [G19C] | protein stability index | 2.25
VIDLFDEQGLSALHLAAQNRHAQT [G19N] | protein stability index | 3.03

Attention now shifts to the item below.
Query: So what does the record say about protein stability index for VSDLFDEQGLSALHLAAQGRHAQT [I2S] ?
Response: 3.88
